# assay_system: KRas G12C (Homo sapiens, UniProt P01116, G12C)
# experiment_description: Cellular inhibition of KRas G12C measured by Phospho-ERK in NCI-H358 cells
# Assay type: cell-based
# test_conditions: pERK(Thr202/Tyr204) normalized with GAPDH, NCI-H358 cells, 3 hours; read-out: IC50
IC50 listing for selected compounds.

Worked set:
C=CC(=O)N1CCN(c2nc(OC[C@@H]3CCCN3C)nc3c2CCN(c2c(F)ccc4ccccc24)C3)CC1CC#N (stereo partly drawn) ... 0.1 to 1000 nM
C=C(COC)C(=O)N1CCN(c2nc(OC[C@@H]3CCCN3C)nc3c2CCN(c2cccc4cccc(Cl)c24)C3)C[C@@H]1CC#N ... 0.1 to 1000 nM
Cc1cccc2cccc(N3CCc4c(nc(OC[C@@H]5CCCN5C)nc4N4CCN(C(=O)/C=C/CCl)[C@@H](CC#N)C4)C3)c12 ... 0.1 to 1000 nM

# lookup: IC50 of `C=CC(=O)N1CCN(c2nc(OC[C@@H]3C[C@@H](OC)CN3CC)nc3c2CCN(c2cccc(Cl)c2C(F)(F)F)C3)C[C@@H]1CC#N` 0.1 to 1000 nM

# lookup: IC50 of `CN1CCC[C@H]1COc1nc2c(c(N3CCN(C(=O)C#CCO)[C@@H](CC#N)C3)n1)CCN(c1cccc3ccccc13)C2` 0.1 to 1000 nM

# lookup: IC50 of `Cc1cccc2cccc(N3CCc4c(nc(OC[C@@H]5CCCN5C)nc4N4CCN(C(=O)/C=C/CN5CCOCC5)[C@@H](CC#N)C4)C3)c12` 0.1 to 1000 nM

# lookup: IC50 of `CC#CC(=O)N1CCN(c2nc(OC[C@@H]3CCCN3C)nc3c2CCN(c2cccc4cccc(C)c24)C3)C[C@@H]1CC#N` 0.1 to 1000 nM

# lookup: IC50 of C=CC(=O)N1CCN(c2ncnc3c2CC(C)N(c2cc(O)cc4ccccc24)C3)CC1 (stereo not drawn) > 1000 nM

---

# assay_system: KRas G12C (Homo sapiens, UniProt P01116, C118S/C51S/C80L/G12C)
# experiment_description: KRas G12C Modification Assay (LCMS detection of covalent adduct)
# Type: binding
# test_conditions: normalized percent of control; 5 μM concentration for 3 hours
quantity: POC

C=CC(=O)N1CCN(c2nc(OC[C@@H]3CCCN3C)nc3c2CCN(c2c(C)c(C)cc4[nH]ccc24)C3)C[C@@H]1CC#N ... C (“C”>50% POC)
C=CC(=O)N1CCN(c2nc(OCCCN3CCOCC3)nc3c2CCN(c2cc(O)cc4cccnc24)C3)CC1 ... C (“C”>50% POC)
C=CC(=O)N1CCN(c2nc(OC[C@@H]3CCCN3C)nc3c2CCN(c2c(C)ccc4[nH]ncc24)C3)CC1CC#N (stereo partly shown) ... C (“C”>50% POC)

---

# assay_system: KRas G12C (Homo sapiens, UniProt P01116, G12C)
# experiment_description: Cellular inhibition of KRas G12C measured by Phospho-ERK in NCI-H358 cells
# Format: cell-based
# test_conditions: pERK(Thr202/Tyr204) normalized with GAPDH, NCI-H358 cells, 3 hours; read-out: IC50
IC50 listing for selected compounds.

Worked set:
C=CC(=O)N1C[C@H](C)N(c2nc(OC[C@@H]3CCCN3C)nc3c2CCN(c2cccc4ccccc24)C3)C[C@@H]1CC#N ... > 1 µM
C=CC(=O)N1CCN(c2nc(OC[C@@H]3CCCN3C)nc3c2CCN(c2ccc(F)cc2C(F)(F)F)C3)CC1CC#N (stereo partly drawn) [Example 276] ... 0.0001 to 1 µM
C=CC(=O)N1CCN(c2nc(OC[C@@H]3CCCN3C)nc3c2CCN(c2ccncc2C(F)(F)F)C3)CC1CC#N (stereo partly drawn) [Example 375] ... > 1 µM
Cc1cccc2cccc(N3CCc4c(nc(OC[C@@H]5CCCN5C)nc4N4CCN(C(=O)/C=C\C#N)[C@@H](CC#N)C4)C3)c12 ... 0.0001 to 1 µM
C=CC(=O)N1CCN(c2nc(OC[C@@H]3C[C@@H](F)CN3C)nc3c2CCN(c2cc(OC)cc4ccccc24)C3)CC1 ... > 1 µM

Under KRas G12C (Homo sapiens, UniProt P01116, G12C): IC50 value of `C=CC(=O)N1CCN(c2nc(OCCN3CCCC(F)(F)C3)nc3c2CCN(c2cccc4cccc(Cl)c24)C3)C[C@@H]1CC#N` ? 0.0001 to 1 µM

---

IC50 listing for selected molecules.
# assay_system: KRas G12C (Homo sapiens, UniProt P01116, G12C)
# experiment_description: Cellular inhibition of KRas G12C measured by Phospho-ERK in NCI-H358 cells
# Assay type: cell-based
# test_conditions: pERK(Thr202/Tyr204) normalized with GAPDH, NCI-H358 cells, 3 hours; read-out: IC50

Worked set:
C=CC(=O)N1CCN(c2nc(OCCN3C[C@@H]4CC[C@H]3C4)nc3c2CCN(c2cc(O)cc4ccccc24)C3)CC1 [Example 77] ... 0.0001 to 1 µM
CN1CCC[C@H]1COc1nc2c(c(N3CCN(C(=O)/C=C/CF)[C@@H](CC#N)C3)n1)CCN(c1cccc3cccc(Cl)c13)C2 [Example 479] ... 0.0001 to 1 µM
C=CC(=O)N1CCN(c2nc(OC[C@H]3COCCN3C)nc3c2CCN(c2cccc4ccccc24)C3)CC1CC#N (stereo partly shown) [Example 446] ... > 1 µM
C=CC(=O)N1CCN(c2nc(OC[C@H]3C[C@H](O)CN3C)nc3c2CCN(c2cccc(F)c2C(F)(F)F)C3)CC1CC#N (stereo partly shown) [Example 415] ... 0.0001 to 1 µM
C=CC(=O)N1CCN(c2nc(OCCN(CC)CC)nc3c2CCN(c2ccccc2C(F)(F)F)C3)CC1CC#N (stereo not shown) [Example 284] ... 0.0001 to 1 µM
C=CC(=O)N1CCN(c2nc(OC[C@@H]3CCCCN3C)nc3c2CCN(c2cc(O)cc4ccccc24)C3)CC1 [Example 196] ... 0.0001 to 1 µM

# evaluate next
# lookup: IC50 of C=CC(=O)N1CCN(c2nc(OC[C@@H]3CCCN3C)nc3c2CCN(c2c(Cl)ccc4[nH]ncc24)C3)CC1 [Example 250] > 1 µM

---

# assay_system: KRas G12C (Homo sapiens, UniProt P01116, G12C)
# experiment_description: Cellular inhibition of KRas G12C measured by Phospho-ERK in NCI-H358 cells
# Type: cell-based
# test_conditions: IC50
quantity: IC50

# lookup: IC50 of C=CC(=O)N1CCN(c2nc(OCCN(C)C)nc3c2CCN(c2cc(O)cc4ccccc24)C3)CC1CCO (stereo not shown) [Example 171] > 1000 nM

---

IC50 listing for selected compounds.
# assay_system: KRas G12C (Homo sapiens, UniProt P01116, G12C)
# experiment_description: Cellular inhibition of KRas G12C measured by Phospho-ERK in NCI-H358 cells
# Type: cell-based
# test_conditions: pERK(Thr202/Tyr204) normalized with GAPDH, NCI-H358 cells, 3 hours; read-out: IC50

Worked set:
C=CC(=O)N1CCN(c2nc(OCCCN3CCOCC3)nc3c2CCN(c2cc(O)ccc2F)C3)CC1 ... > 1000 nM
C=CC(=O)N1CCN(c2nc(OC[C@@H]3CCCN3C)nc3c2CCN(c2cccc4cccn24)C3)C[C@@H]1CC#N ... 0.1 to 1000 nM
C=CC(=O)N1CCN(c2nc(OC[C@@H]3C[C@@H](OC)CN3C)nc3c2CCN(c2cccc(Cl)c2C(F)(F)F)C3)C[C@@H]1CC#N ... 0.1 to 1000 nM
C=CC(=O)N1CCN(c2nc(OCCN3CCCC[C@@H]3C)nc3c2CCN(c2cc(O)cc4ccccc24)C3)CC1 ... 0.1 to 1000 nM
Cc1cccc2cccc(N3CCc4c(nc(OC[C@H]5CCCN5C)nc4N4CCN(C(=O)/C=C/CO)[C@@H](CC#N)C4)C3)c12 ... 0.1 to 1000 nM
C=CC(=O)N1CCN(c2nc(OC[C@@H]3CCCN3C)nc3c2CCN(c2cccc4ccc(F)cc24)C3)CC1CC#N (some centres unmarked) ... 0.1 to 1000 nM

# lookup: IC50 of C=CC(=O)N1CCN(c2nc(OCC3CCN(CC(=O)N(C)C)C3)nc3c2CCN(c2cc(O)cc4ccccc24)C3)CC1 (centres unmarked) > 1000 nM

# lookup: IC50 of `C=CC(=O)N1CCN(c2ncnc3c2CCN(c2c(C)ccc4[nH]ncc24)C3)CC1` > 1000 nM

# lookup: IC50 of `C=CC(=O)N1CCN(c2nc(O[C@H](C)CN(C)C)nc3c2CCN(c2c(C)ccc4[nH]ncc24)C3)CC1` > 1000 nM

# lookup: IC50 of `C=CC(=O)N1CCN(c2nc(O[C@H](CC)CN(C)C)nc3c2CCN(c2cc(O)cc4ccccc24)C3)CC1` > 1000 nM

# lookup: IC50 of `C=CC(=O)N1CCN(c2nc(OC[C@@H]3CCCN3C)nc3c2CCN(c2cccc4ccccc24)C3)C[C@@H]1CCOC` > 1000 nM

# lookup: IC50 of `Cc1cccc2cccc(N3CCc4c(nc(OC[C@@H]5CCCN5C)nc4N4CCN(C(=O)/C=C/C(=O)N(C)C)[C@@H](CC#N)C4)C3)c12` 0.1 to 1000 nM

# lookup: IC50 of C[C@H](CN(C)C)Oc1nc2c(c(N3CCN(C(=O)/C=C/CN(C)C)CC3)n1)CCN(c1cc(O)cc3ccccc13)C2 [Example 122, bis-trifluoroacetate] > 1000 nM

# lookup: IC50 of `C=CC(=O)N1CCN(c2nc(OCCCN3CCOCC3)nc3c2CCN(c2cc(O)ccc2OC(F)(F)F)C3)CC1` 0.1 to 1000 nM

Values compiled from patent US10689377B2.
